# measured.target: UniProt P00734
# assay.procedure: In vitro inhibitory activity against human thrombin.(Slow moving component on HPLC)

{"molecule": "C[C@]12CC[C@@H](CCCc3ccccc3)C(=O)N1[C@H](C(=O)NC(CCCN=C(N)N)C(=O)c1nccs1)CS2 (stereo partly specified)", "Ki (nM)": 6}

###

# measured.target: Prothrombin (Homo sapiens, UniProt P00734)
# assay.procedure: In vitro inhibitory activity against human thrombin.( Fast moving component on HPLC)
pKi: −log10 of the molar value.
quantity: pKi

{"compound": "C[C@]12CC[C@@H](CCCc3ccccc3)C(=O)N1[C@H](C(=O)NC(CCCN=C(N)N)C(=O)c1nccs1)CS2 (stereo partly specified)", "measured.value": 8.70}

###

# measured.target: UniProtKB P00734
# assay.procedure: In vitro inhibitory activity against human thrombin.
pKi: −log10 of the molar value.
Reported pKi is given for each of the following compounds.
quantity: pKi

{"compound": "NC(N)=NCCCC(NC(=O)[C@@H]1CS[C@H]2CC[C@H](Cc3ccccc3)C(=O)N21)C(=O)c1nc2ccccc2s1 (stereo partly drawn)", "measured.value": 5.95}
{"compound": "C[C@]12CC[C@H](c3ccc4nc(C(F)(F)F)ccc4c3)C(=O)N1[C@H](C(=O)NC(CCCN=C(N)N)C(=O)c1nccs1)CS2 (stereo partly drawn)", "measured.value": 6.82}
{"compound": "C[C@]12CC[C@@H](c3ccc4nc(C(F)(F)F)ccc4c3)C(=O)N1[C@H](C(=O)NC(CCCN=C(N)N)C(=O)c1nc3ccccc3s1)CS2 (stereo partly drawn)", "measured.value": 7.74}
{"compound": "C[C@]12CC[C@H](CCCc3ccccc3)C(=O)N1[C@H](C(=O)NC(CCCN=C(N)N)C(=O)c1nccs1)CS2 (stereo partly drawn)", "measured.value": 7.00}
{"compound": "C[C@]12CC[C@H](CCc3ccccc3)C(=O)N1[C@H](C(=O)NC(CCCN=C(N)N)C(=O)c1nc3ccccc3s1)CS2 (stereo partly drawn)", "measured.value": 6.26}
{"compound": "C[C@]12CC[C@@H](CCc3ccccc3)C(=O)N1[C@H](C(=O)NC(CCCN=C(N)N)C(=O)c1nc3ccccc3s1)CS2 (stereo partly drawn)", "measured.value": 6.63}
{"compound": "C[C@]12CC[C@@H](Cc3ccccc3)C(=O)N1[C@H](C(=O)NC(CCCN=C(N)N)C(=O)c1nc3ccccc3s1)CS2 (stereo partly drawn)", "measured.value": 7.74}
{"compound": "C[C@]12CC[C@@H](c3ccc4nc(C(F)(F)F)ccc4c3)C(=O)N1[C@H](C(=O)NC(CCCN=C(N)N)C(=O)c1nccs1)CS2 (stereo partly drawn)", "measured.value": 8.00}

Where these numbers come from: ChEMBL document CHEMBL1131662
